Target: FPR1 (Homo sapiens (Human))
Sequence (P21462 whole entry): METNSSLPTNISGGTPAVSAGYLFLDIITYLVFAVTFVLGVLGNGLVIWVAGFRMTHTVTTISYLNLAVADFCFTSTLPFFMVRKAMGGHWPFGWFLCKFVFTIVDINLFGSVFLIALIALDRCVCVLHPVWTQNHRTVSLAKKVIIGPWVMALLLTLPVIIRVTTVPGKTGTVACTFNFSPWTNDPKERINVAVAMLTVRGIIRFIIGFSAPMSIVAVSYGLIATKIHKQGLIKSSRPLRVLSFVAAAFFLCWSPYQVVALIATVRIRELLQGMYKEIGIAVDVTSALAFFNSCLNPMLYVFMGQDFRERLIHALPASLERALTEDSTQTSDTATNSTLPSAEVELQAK
Assay: Cyclic adenosine monophosphate (cAMP) assay, CHO-K1 cells stably overexpressing hFPR1
Type: cell-based
Conditions: 2.5 μM Forskolin and 0.25 nM WKYMVm (FPR1 agonist)
pIC50: −log10 of the molar value.
measure-name: pIC50

Sample records with pIC50:
* CO[C@H]1CC[C@@H](c2nn(C)c(C(=O)N[C@@H](C)C(C)(C)C)c2NS(=O)(=O)c2ccc(C3CC3)cc2)CC1 | 6.00 to 7.00
* COC1CC=C(c2nn(C)c(C(=O)N[C@@H](C)C(C)(C)C)c2NS(=O)(=O)c2ccc(Cl)cc2)CC1 (stereo partly drawn) | 6.00 to 7.00
* COc1ccc(S(=O)(=O)Nc2c(-c3ccc(F)cc3)nn(C)c2C(=O)N[C@@H](C)C(C)(C)C)cc1 | 6.00 to 7.00
* C[C@H](NC(=O)c1c(NS(=O)(=O)c2ccc(Cl)cc2)c(C2=CCC3(CC2)OCCO3)nn1C)C(C)(C)C | 4.60 to 6.00
* Cc1ccc(S(=O)(=O)Nc2c(-c3cccc(OCC(C)C)c3)nn(C)c2C(=O)N[C@@H](C)C(C)(C)C)cc1 | < 4.60
* COCc1cccc(-c2nn(C)c(C(=O)N[C@@H](C)C(C)(C)C)c2NS(=O)(=O)c2ccc(C)cc2)c1 | < 4.60
* CO[C@H]1CC[C@@H](c2nn(C)c(C(=O)N[C@@H](C)C(C)(C)C)c2NS(=O)(=O)c2ccc(C#N)cc2)CC1 | > 7.00
* Cc1ccc(S(=O)(=O)Nc2c(C3=CCOCC3)nn(C)c2C(=O)N[C@@H](C)C(C)(C)C)cc1 [Compound 30] | 4.60 to 6.00

Now consider a different compound.
For `CO[C@H]1CC[C@@H](c2nn(C)c(C(=O)N[C@@H](C)C(C)(C)C)c2NS(=O)(=O)c2ccc(C)cc2)CC1` , what is its reported pIC50? 6.00 to 7.00
